Target: human amylin receptor (hAMYR3) (Homo sapiens, UniProt O60896+P30988)
Construct: host or cells: BHK cells (Hollex-1 line expressing hCTR(a) and CRE-Luc), further transfected with human RAMP3
Sequence (P30988 25-474): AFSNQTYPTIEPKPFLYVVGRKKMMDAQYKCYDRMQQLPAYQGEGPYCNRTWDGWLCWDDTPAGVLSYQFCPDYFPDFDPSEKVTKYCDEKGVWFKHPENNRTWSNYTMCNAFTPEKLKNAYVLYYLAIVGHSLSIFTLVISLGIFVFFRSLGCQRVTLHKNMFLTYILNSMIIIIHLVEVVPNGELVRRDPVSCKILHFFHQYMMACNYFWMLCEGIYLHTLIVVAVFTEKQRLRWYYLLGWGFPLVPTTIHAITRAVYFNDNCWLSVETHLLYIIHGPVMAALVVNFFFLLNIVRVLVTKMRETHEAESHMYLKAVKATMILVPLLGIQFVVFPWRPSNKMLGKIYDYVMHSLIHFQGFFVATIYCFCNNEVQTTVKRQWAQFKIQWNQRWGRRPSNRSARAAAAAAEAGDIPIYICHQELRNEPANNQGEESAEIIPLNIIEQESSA
Sequence (O60896 24-148): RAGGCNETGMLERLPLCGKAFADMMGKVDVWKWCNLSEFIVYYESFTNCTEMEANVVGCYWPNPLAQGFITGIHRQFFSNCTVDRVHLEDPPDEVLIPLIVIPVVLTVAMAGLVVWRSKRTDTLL
Assay: Amylin receptor assay, method A (CRE-luciferase reporter, BHK cells)
Type: cell-based
Conditions: hAMYR3 Potency, 1% HSA, EC50, method A, in the presence of 1% HSA
Numbered stars: 1 amine (or outer) side, 2 acyl side, 3 side chain; on linkers, the order of the positions; unused ones are H or OH. Square brackets hold non-standard residues; d marks the D form. Side chains are listed from the residue outwards. * marks the point of attachment. C18 diacid = O=C(O)CCCCCCCCCCCCCCCCC(=O)*; γGlu = O=C(O)[C@H](CCC(=O)[*:2])N[*:1]; AEEA = NCCOCCOCC(=O)O; Aib = CC(C)(N)C(=O)O
In this section, each of the substances is paired with its reported EC50.
Enter your answer as a number in nM; do not include the unit.

Study these solved cases before continuing.
{"substance": "H[Aib]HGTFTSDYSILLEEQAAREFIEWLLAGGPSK([AEEA-AEEA-γGlu-C18 diacid])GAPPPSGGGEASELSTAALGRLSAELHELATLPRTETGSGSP-NH2 [Compound 15]", "target-or-test-system": "human amylin receptor (hAMYR3) (Homo sapiens, UniProt O60896+P30988)", "measurement": 0.0822}
{"substance": "H[Aib]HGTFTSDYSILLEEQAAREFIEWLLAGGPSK([AEEA-AEEA-γGlu-C18 diacid])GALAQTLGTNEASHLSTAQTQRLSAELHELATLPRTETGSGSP-NH2 [Compound 45]", "target-or-test-system": "human amylin receptor (hAMYR3) (Homo sapiens, UniProt O60896+P30988)", "measurement": 0.0624}

With those in mind, consider the next substance.
Form: substance = H[Aib]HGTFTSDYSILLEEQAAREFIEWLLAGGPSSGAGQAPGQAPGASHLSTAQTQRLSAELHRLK([AEEA-AEEA-γGlu-C18 diacid])TLPRTETGSGSP-NH2 [Compound 91] ; EC50 = 0.0288
